Quick list: KM per entry.
Target: Factor X, P00742
Sequence (P00742 whole entry, looked up): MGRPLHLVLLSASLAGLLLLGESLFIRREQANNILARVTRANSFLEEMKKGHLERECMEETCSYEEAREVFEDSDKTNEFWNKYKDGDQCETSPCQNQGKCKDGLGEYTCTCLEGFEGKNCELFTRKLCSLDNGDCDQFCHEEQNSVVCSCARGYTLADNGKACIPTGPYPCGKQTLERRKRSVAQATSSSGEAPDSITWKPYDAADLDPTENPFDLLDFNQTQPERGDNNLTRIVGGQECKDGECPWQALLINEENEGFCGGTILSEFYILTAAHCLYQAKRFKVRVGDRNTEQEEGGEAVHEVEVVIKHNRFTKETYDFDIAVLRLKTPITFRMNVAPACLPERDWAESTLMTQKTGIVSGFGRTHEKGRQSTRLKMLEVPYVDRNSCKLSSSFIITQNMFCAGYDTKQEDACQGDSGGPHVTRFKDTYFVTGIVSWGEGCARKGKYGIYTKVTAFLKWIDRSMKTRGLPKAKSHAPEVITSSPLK
Measure: KM (µM)

protein="FIXa-Y155F/R318Y/R338E/T343R (protein) chain 1: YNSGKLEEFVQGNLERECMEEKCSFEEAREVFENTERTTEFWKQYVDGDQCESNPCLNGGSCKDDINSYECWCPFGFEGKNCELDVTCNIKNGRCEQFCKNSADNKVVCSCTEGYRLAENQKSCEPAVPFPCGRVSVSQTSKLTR chain 2: VVGGEDAKPGQFPWQVVLNGKVDAFCGGSIVNEKWIVTAAHCVETGVKITVVAGEHNIEETEHTEQKRNVIRIIPHHNYNAAINKYNHDIALLELDEPLVLNSYVTPICIADKEYTNIFLKFGSGYVSGWGRVFHKGYSALVLQYLRVPLVDRATCLESTKFRIYNNMFCAGFHEGGRDSCQGDSGGPHVTEVEGTSFLTGIISWGEECAMKGKYGIYTKVSRYVNWIKEKTKLT" result_number=0.0242
protein="FIXa-Y155F/R318Y/T343R/R403E (protein) chain 1: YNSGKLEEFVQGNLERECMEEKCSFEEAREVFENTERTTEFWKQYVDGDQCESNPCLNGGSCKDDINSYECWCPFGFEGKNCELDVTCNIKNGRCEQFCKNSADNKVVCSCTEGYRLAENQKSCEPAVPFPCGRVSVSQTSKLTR chain 2: VVGGEDAKPGQFPWQVVLNGKVDAFCGGSIVNEKWIVTAAHCVETGVKITVVAGEHNIEETEHTEQKRNVIRIIPHHNYNAAINKYNHDIALLELDEPLVLNSYVTPICIADKEYTNIFLKFGSGYVSGWGRVFHKGYSALVLQYLRVPLVDRATCLRSTKFRIYNNMFCAGFHEGGRDSCQGDSGGPHVTEVEGTSFLTGIISWGEECAMKGKYGIYTKVSEYVNWIKEKTKLT" result_number=0.0727
protein="FIXa-D203N/F205T/K228N (protein) chain 1: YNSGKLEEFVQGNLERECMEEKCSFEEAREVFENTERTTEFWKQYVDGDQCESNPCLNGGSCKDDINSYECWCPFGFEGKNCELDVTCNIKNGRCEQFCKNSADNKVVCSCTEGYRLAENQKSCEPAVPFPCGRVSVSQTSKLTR chain 2: VVGGEDAKPGQFPWQVVLNGKVNATCGGSIVNEKWIVTAAHCVETGVNITVVAGEHNIEETEHTEQKRNVIRIIPHHNYNAAINKYNHDIALLELDEPLVLNSYVTPICIADKEYTNIFLKFGSGYVSGWGRVFHKGRSALVLQYLRVPLVDRATCLRSTKFTIYNNMFCAGFHEGGRDSCQGDSGGPHVTEVEGTSFLTGIISWGEECAMKGKYGIYTKVSRYVNWIKEKTKLT" result_number=0.0399
protein="FIXa-Y155F/R318Y/T343R/E410N (protein) chain 1: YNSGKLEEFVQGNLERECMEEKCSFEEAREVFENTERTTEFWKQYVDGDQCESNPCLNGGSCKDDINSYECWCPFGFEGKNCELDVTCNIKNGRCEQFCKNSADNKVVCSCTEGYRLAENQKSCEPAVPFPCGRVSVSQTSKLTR chain 2: VVGGEDAKPGQFPWQVVLNGKVDAFCGGSIVNEKWIVTAAHCVETGVKITVVAGEHNIEETEHTEQKRNVIRIIPHHNYNAAINKYNHDIALLELDEPLVLNSYVTPICIADKEYTNIFLKFGSGYVSGWGRVFHKGYSALVLQYLRVPLVDRATCLRSTKFRIYNNMFCAGFHEGGRDSCQGDSGGPHVTEVEGTSFLTGIISWGEECAMKGKYGIYTKVSRYVNWIKNKTKLT" result_number=0.0403
